Each record here notes measured Percent Cytotoxicity.
- Test system: HeP-2 (larynx)
- Experimental Protocol: MTT cytotoxicity assay, HeP-2 cells
- Format: cell-based, human
- Test Context: human, 48 hours, 1 μM
Starred links: 1 amine or outer side, 2 acyl side, 3 side chain; linkers in the order of their positions; H or OH if unused. Non-standard residues stand in square brackets, D forms with d. Residues, ends and D or L forms follow the SMILES beside them. 2Furoyl(5-aminomethyl) = O=C(c1ccc(CN[*:1])o1)[*:2]

>  <Compound>
CSCC[C@H](NC(=O)[C@@H](N)CC(C)C)C(=O)N[C@@H](Cc1ccc(O)cc1)C(=O)NC[C@H]1O[C@H](C(=O)N[C@H](C(=O)N[C@@H](Cc2ccc(O)cc2)C(=O)N[C@@H](CC(C)C)C(=O)N[C@@H](CCCCN)C(=O)O)[C@@H](C)O)[C@@H](OCc2ccccc2)[C@@H]1OCc1ccccc1 [SEQ ID NO: 3, Leu-Met-Tyr-Saa2-Thr-Tyr-Leu-Lys]

>  <Percent Cytotoxicity / %>
10.8

$$$$
>  <Compound>
CSCC[C@H](NC(=O)[C@@H](N)CC(C)C)C(=O)NCc1ccc(C(=O)N[C@@H](Cc2ccc(O)cc2)C(=O)N[C@@H](CC(C)C)C(=O)N[C@@H](CCCCN)C(=O)O)o1 [SEQ ID NO: 18, Leu-Met-Saa1-Tyr-Leu-Lys] (H-LM[2Furoyl(5-aminomethyl)]YLK-OH)

>  <Percent Cytotoxicity / %>
32.9

$$$$
>  <Compound>
CSCC[C@H](NC(=O)[C@@H](N)CC(C)C)C(=O)N[C@@H](Cc1ccc(O)cc1)C(=O)NCc1ccc(C(=O)N[C@@H](Cc2ccc(O)cc2)C(=O)N[C@@H](CC(C)C)C(=O)N[C@@H](CCCCN)C(=O)O)o1 [SEQ ID NO: 10, Leu-Met-Tyr-Saa1-Tyr-Leu-Lys] (H-LMY[2Furoyl(5-aminomethyl)]YLK-OH)

>  <Percent Cytotoxicity / %>
28.9

$$$$

* * *

- System: ECV-304 (endothelial)
- Test Context: ECV-304 cells; peptide 1 nM; 48 hours; NA = Not Active
Starred links: 1 amine or outer side, 2 acyl side, 3 side chain; linkers in the order of their positions; H or OH if unused. Non-standard residues stand in square brackets, D forms with d. Residues, ends and D or L forms follow the SMILES beside them. 2Furoyl(5-aminomethyl) = O=C(c1ccc(CN[*:1])o1)[*:2]; X2 = O=C([C@@H]1CC[C@H](CN[*:1])O1)[*:2]

>  <Compound>
CSCC[C@H](NC(=O)[C@@H](N)CC(C)C)C(=O)N[C@@H](Cc1ccc(O)cc1)C(=O)NC[C@H]1CC[C@@H](C(=O)N[C@@H](Cc2ccc(O)cc2)C(=O)N[C@@H](CC(C)C)C(=O)N[C@@H](CCCCN)C(=O)O)O1 [SEQ ID NO: 13, Leu-Met-Tyr-Saa4-Tyr-Leu-Lys] (H-LMY[X2]YLK-OH)

>  <Target Or Test System>
ECV-304 (endothelial)

>  <Percent Cytotoxicity>
23.0 ± 1.6%

$$$$
>  <Compound>
CSCC[C@H](NC(=O)[C@@H](N)CC(C)C)C(=O)N[C@@H](Cc1ccc(O)cc1)C(=O)NCc1ccc(C(=O)N[C@@H](Cc2ccc(O)cc2)C(=O)N[C@@H](CC(C)C)C(=O)N[C@@H](CCCCN)C(=O)O)o1 [SEQ ID NO: 10, Leu-Met-Tyr-Saa1-Tyr-Leu-Lys] (H-LMY[2Furoyl(5-aminomethyl)]YLK-OH)

>  <Target Or Test System>
ECV-304 (endothelial)

>  <Percent Cytotoxicity>
15.2 ± 1.0%

$$$$
>  <Compound>
CSCC[C@H](NC(=O)[C@@H](N)CC(C)C)C(=O)NCc1ccc(C(=O)N[C@@H](Cc2ccc(O)cc2)C(=O)N[C@@H](CC(C)C)C(=O)N[C@@H](CCCCN)C(=O)O)o1 [SEQ ID NO: 18, Leu-Met-Saa1-Tyr-Leu-Lys] (H-LM[2Furoyl(5-aminomethyl)]YLK-OH)

>  <Target Or Test System>
ECV-304 (endothelial)

>  <Percent Cytotoxicity>
11.0 ± 0.6%

$$$$
>  <Compound>
CSCC[C@H](N)C(=O)NC[C@H]1CC[C@@H](C(=O)N[C@@H](Cc2ccc(O)cc2)C(=O)N[C@@H](CC(C)C)C(=O)O)O1 [SEQ ID NO: 17, Met-Saa4-Tyr-Leu]

>  <Target Or Test System>
ECV-304 (endothelial)

>  <Percent Cytotoxicity>
16.4 ± 1.9%

$$$$
>  <Compound>
CSCC[C@H](N)C(=O)NCc1ccc(C(=O)N[C@@H](Cc2ccc(O)cc2)C(=O)N[C@@H](CC(C)C)C(=O)O)o1 [SEQ ID NO: 14, Met-Saa1-Tyr-Leu]

>  <Target Or Test System>
ECV-304 (endothelial)

>  <Percent Cytotoxicity>
12.7 ± 0.4%

$$$$
